Target: Tyrosinase (Agaricus bisporus)
Assay: Inhibitory activity against mushroom tyrosinase
property_label: pIC50
Note on units: pIC50 is unitless, being -log10 of a concentration expressed in mol/L.

Below, each entry is followed by its recorded pIC50 result.
chem_smiles=O=C(O)C[C@H](NC(=O)[C@H](Cc1c[nH]c2ccccc12)NC(=O)[C@H](Cc1ccccc1)NC(=O)OCc1cc(=O)c(O)co1)C(=O)O property_label=pIC50 obs_value=5.67
chem_smiles=CC[C@H](C)[C@H](NC(=O)[C@H](Cc1c[nH]c2ccccc12)NC(=O)[C@H](Cc1ccccc1)NC(=O)OCc1cc(=O)c(O)co1)C(=O)O property_label=pIC50 obs_value=5.66
chem_smiles=O=C(N[C@@H](Cc1ccccc1)C(=O)N[C@@H](Cc1ccc(O)cc1)C(=O)N[C@@H](Cc1ccc(O)cc1)C(=O)O)OCc1cc(=O)c(O)co1 property_label=pIC50 obs_value=6.41
chem_smiles=O=C(N[C@@H](Cc1ccccc1)C(=O)N[C@@H](Cc1c[nH]c2ccccc12)C(=O)N[C@@H](Cc1c[nH]c2ccccc12)C(=O)O)OCc1cc(=O)c(O)co1 property_label=pIC50 obs_value=5.21
chem_smiles=O=C(N[C@@H](Cc1ccccc1)C(=O)N[C@@H](Cc1ccccc1)C(=O)N[C@@H](Cc1ccc(O)cc1)C(=O)O)OCc1cc(=O)c(O)co1 property_label=pIC50 obs_value=6.48

Now, please, on to the next compound.
Request: Supply reported pIC50 belonging to this compound: O=C(N[C@@H](Cc1ccccc1)C(=O)N[C@@H](Cc1c[nH]c2ccccc12)C(=O)N[C@@H](Cc1ccccc1)C(=O)O)OCc1cc(=O)c(O)co1
Response: 5.35

Hey, just so you know, these numbers are from BindingDB's records for doi:10.1016/j.bmcl.2004.03.046.
